target: FAP (Homo sapiens, UniProt Q12884)
Construct: Target cells: WI-38 cells (typically 1000-20,000 cells per well); endogenous in cells; host or cells: WI-38 cells
Sequence (Q12884 whole entry): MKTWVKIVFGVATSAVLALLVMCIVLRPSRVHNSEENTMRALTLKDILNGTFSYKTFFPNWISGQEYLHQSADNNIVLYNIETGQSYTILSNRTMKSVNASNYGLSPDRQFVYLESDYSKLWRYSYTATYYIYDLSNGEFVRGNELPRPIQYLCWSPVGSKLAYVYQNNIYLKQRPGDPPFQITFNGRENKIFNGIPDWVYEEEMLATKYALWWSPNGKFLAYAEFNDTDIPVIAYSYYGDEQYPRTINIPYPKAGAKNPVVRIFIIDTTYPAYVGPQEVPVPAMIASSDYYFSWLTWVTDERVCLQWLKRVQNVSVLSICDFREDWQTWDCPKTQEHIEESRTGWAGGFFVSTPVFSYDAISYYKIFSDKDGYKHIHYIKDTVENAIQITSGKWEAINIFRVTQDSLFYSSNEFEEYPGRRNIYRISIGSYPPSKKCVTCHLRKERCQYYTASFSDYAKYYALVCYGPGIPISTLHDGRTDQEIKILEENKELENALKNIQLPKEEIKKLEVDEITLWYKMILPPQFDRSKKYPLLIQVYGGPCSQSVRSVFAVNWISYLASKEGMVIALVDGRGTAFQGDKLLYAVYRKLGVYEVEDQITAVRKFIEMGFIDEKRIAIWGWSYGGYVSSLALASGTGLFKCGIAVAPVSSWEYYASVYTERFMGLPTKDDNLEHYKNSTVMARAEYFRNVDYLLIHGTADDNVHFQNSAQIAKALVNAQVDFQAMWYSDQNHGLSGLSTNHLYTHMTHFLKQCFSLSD
measurementNotes: Antibody dependent cellular cytotoxicity (ADCC) reporter assay
Format: cell-based
conditionSummary: WI-38 target cells; Jurkat FcγRIIIa NFAT-luciferase reporter cells; with anti-cotinine antibody (SEQ ID NO: 11/12); 12-18 hours; average if more than one run; read-out: ADCC Reporter Assay pEC50 (converted)
propertyLabel: EC50 (nM)
One number for each entry, in nM.

# input compound: CN1C(=O)C[C@H](C(=O)NCCOCCOCCOCCOCCOCCOCCOCCOCCOCCOCCOCCOCCOCCOCCOCCOCCOCCOCCOCCOCCOCCOCCOCCNC(=O)COc2ccc3c(C(=O)NCC(=O)N4CCC[C@H]4C#N)ccnc3c2)[C@H]1c1cccnc1 [Example 12] ; wanted: its EC50
1

All figures here come from patent US20250064947A1.
